tested on: 323965-272-R-J2-PDC complex spheroid viability; assay: Anticancer human tumor 323965-272-R-J2-PDC patient-derived pancreatic carcinoma cell line growth inhibition [CLK]; details: second compound 0.0316 µM; first compound 0.0316 µM; stronger effect = lower value

| compound | unitSymbol | viability, T/C |
| --- | --- | --- |
| CC(Nc1ccc2c(c1)OCCn1cc(N3C(=O)OCC3C(F)F)nc1-2)C(N)=O (stereo not given) + CNC(=O)c1ccc(Nc2nc(OC3CCCC3)c3c(-c4ccc5nc(C)oc5c4)c[nH]c3n2)c(OC)c1 | % | 110 |
| COc1c(OCCCN2CCOCC2)ccc2c3n(c(=NC(=O)c4cnc(N)nc4)nc12)CCN3 + CNC(=O)c1ccc(Nc2nc(OC3CCCC3)c3c(-c4ccc5nc(C)oc5c4)c[nH]c3n2)c(OC)c1 | % | 66.8 |
| CC1(C)CCC(CN2CCN(c3ccc(C(=O)NS(=O)(=O)c4ccc(NCC5CCOCC5)c([N+](=O)[O-])c4)c(Oc4cnc5[nH]ccc5c4)c3)CC2)=C(c2ccc(Cl)cc2)C1 + CNC(=O)c1ccc(Nc2nc(OC3CCCC3)c3c(-c4ccc5nc(C)oc5c4)c[nH]c3n2)c(OC)c1 | % | 102 |
| Cn1ncnc1[C@H]1c2n[nH]c(=O)c3cc(F)cc(c23)N[C@@H]1c1ccc(F)cc1 + CNC(=O)c1ccc(Nc2nc(OC3CCCC3)c3c(-c4ccc5nc(C)oc5c4)c[nH]c3n2)c(OC)c1 | % | 86.8 |
| CC(CO)NC(=O)c1cc(-c2ccc(Cl)cc2)nn(-c2cnn(C)c2)c1=O (stereo not given) + CN1CCN(c2cc(C(=O)Nc3cc4cc(-c5cnn(C)c5)ccc4cn3)ccn2)CC1 | % | 97.3 |

* * *

tested on: 323965-272-R-J2-PDC complex spheroid viability; assay: Anticancer human tumor 323965-272-R-J2-PDC cell line growth inhibition [CLK]; details: second compound 0.316 µM; first compound 0.0316 µM; stronger effect = lower value;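 note: spheroids exposed to agents for seven days before readout; percent of DMSO vehicle control wells so 100% = untreated growth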
True if viability, T/C is below 60%. False if not; exact matches included in False.

| molecule | class |
| --- | --- |
| COc1cccc2c1C(=O)c1c(O)c3c(c(O)c1C2=O)CC(O)(C(=O)CO)CC3OC1CC(N)C(O)C(C)O1 (stereo unspecified) + CN1CCN(c2cc(C(=O)Nc3cc4cc(-c5cnn(C)c5)ccc4cn3)ccn2)CC1 | True |
| O=C(c1cc(Cc2n[nH]c(=O)c3ccccc23)ccc1F)N1CCN(C(=O)C2CC2)CC1 + CNC(=O)c1ccc(Nc2nc(OC3CCCC3)c3c(-c4ccc5nc(C)oc5c4)c[nH]c3n2)c(OC)c1 | False |
| CCCS(=O)(=O)Nc1ccc(F)c(C(=O)c2c[nH]c3ncc(-c4ccc(Cl)cc4)cc23)c1F + CNC(=O)c1ccc(Nc2nc(OC3CCCC3)c3c(-c4ccc5nc(C)oc5c4)c[nH]c3n2)c(OC)c1 | False |
| CC1COCCN1c1cc(C2(S(C)(=N)=O)CC2)nc(-c2ccnc3[nH]ccc23)n1 (stereo unspecified) + CN1CCN(c2cc(C(=O)Nc3cc4cc(-c5cnn(C)c5)ccc4cn3)ccn2)CC1 | True |
| COc1c(OCCCN2CCOCC2)ccc2c3n(c(=NC(=O)c4cnc(N)nc4)nc12)CCN3 + CNC(=O)c1ccc(Nc2nc(OC3CCCC3)c3c(-c4ccc5nc(C)oc5c4)c[nH]c3n2)c(OC)c1 | True |
| C=CC(=O)N1CCN(c2nc(=O)n(-c3c(C)ccnc3C(C)C)c3nc(-c4c(O)cccc4F)c(F)cc23)C(C)C1 (stereo unspecified) + CNC(=O)c1ccc(Nc2nc(OC3CCCC3)c3c(-c4ccc5nc(C)oc5c4)c[nH]c3n2)c(OC)c1 | True |
| CC(Nc1ccc2c(c1)OCCn1cc(N3C(=O)OCC3C(F)F)nc1-2)C(N)=O (stereo unspecified) + CNC(=O)c1ccc(Nc2nc(OC3CCCC3)c3c(-c4ccc5nc(C)oc5c4)c[nH]c3n2)c(OC)c1 | False |
| Cn1ncnc1[C@H]1c2n[nH]c(=O)c3cc(F)cc(c23)N[C@@H]1c1ccc(F)cc1 + CN1CCN(c2cc(C(=O)Nc3cc4cc(-c5cnn(C)c5)ccc4cn3)ccn2)CC1 | True |
| C#Cc1c(F)ccc2cc(O)cc(-c3ncc4c(N5CC6CCC(C5)N6)nc(OCC56CCCN5CC(F)C6)nc4c3F)c12 (stereo unspecified) + CN1CCN(c2cc(C(=O)Nc3cc4cc(-c5cnn(C)c5)ccc4cn3)ccn2)CC1 | True |
| CC(=O)O[C@H]1C(=O)[C@@]2(C)[C@H]([C@H](OC(=O)c3ccccc3)[C@]3(O)C[C@H](OC(=O)[C@H](O)[C@@H](NC(=O)c4ccccc4)c4ccccc4)C(C)=C1C3(C)C)[C@]1(OC(C)=O)CO[C@@H]1C[C@@H]2O + CNC(=O)c1ccc(Nc2nc(OC3CCCC3)c3c(-c4ccc5nc(C)oc5c4)c[nH]c3n2)c(OC)c1 | False |
| Nc1ccccc1NC(=O)c1ccc(CNC(=O)OCc2cccnc2)cc1 + CNC(=O)c1ccc(Nc2nc(OC3CCCC3)c3c(-c4ccc5nc(C)oc5c4)c[nH]c3n2)c(OC)c1 | False |
| COc1ccc([C@@H](O)c2cc(-c3ncnc4cc(N5CCOCC5)ccc34)c(F)cc2Cl)nn1 + CNC(=O)c1ccc(Nc2nc(OC3CCCC3)c3c(-c4ccc5nc(C)oc5c4)c[nH]c3n2)c(OC)c1 | False |
| COc1c(OCCCN2CCOCC2)ccc2c3n(c(=NC(=O)c4cnc(N)nc4)nc12)CCN3 + CN1CCN(c2cc(C(=O)Nc3cc4cc(-c5cnn(C)c5)ccc4cn3)ccn2)CC1 | True |
| Nc1ccn(C2OC(CO)C(O)C2(F)F)c(=O)n1 (stereo unspecified) + CNC(=O)c1ccc(Nc2nc(OC3CCCC3)c3c(-c4ccc5nc(C)oc5c4)c[nH]c3n2)c(OC)c1 | True |
| CC(Nc1ccc2c(c1)OCCn1cc(N3C(=O)OCC3C(F)F)nc1-2)C(N)=O (stereo unspecified) + CN1CCN(c2cc(C(=O)Nc3cc4cc(-c5cnn(C)c5)ccc4cn3)ccn2)CC1 | True |

These entries and their values trace back to PubChem BioAssay AID2060619.
